ASSAY PROCEDURE: protein stability index of a GFP-peptide fusion (yeast GPS) (PSI 1-4); higher = more stable; sorted into four equal gates, so the index is relative within each strain
MEASUREMENT SETUP: doa10∆
I would appreciate it if you labelled entries 1.0 when protein stability index is 3 or higher, otherwise 0.0.

Past entries and their recorded results:
# BIOPOLYMER SEQUENCE, CLASSIFICATION
records = [
    ("GDVSSGLFEKSTVSANH [BRN1]", 0.0),
    ("IYPRTVIDIEIHVLEQD [SKI6]", 0.0),
    ("SKMSDESFAELMTKLNS [RPC17]", 1.0),
    ("LLEETQAKLKKNVETLE [SMC4]", 1.0),
    ("ISNGTINIQKKLEPKEI [SIR4]", 0.0),
    ("SVKESTGMSSMSPFLRK [SRB4]", 1.0),
    ("SQSKMMSSQISSLIPHC [MTR3]", 0.0),
    ("CDSYLDADKELSFEINV [BRR2]", 0.0),
]

Textbook exercise: given the entry FNNGDDDDYGDEEDPNE [RPC31] , state whether its protein stability index is greater than or equal to 3.
1.0

Could you tell me if the measured protein stability index of SDDIAENDNLDNVSKNA [YCG1] reaches 3 or more?
1.0

Is reported protein stability index greater than or equal to 3 here: RNEQVTIELKNGTTVWG [SMD1]
0.0

* * *

ASSAY PROCEDURE: protein stability index of a GFP-peptide fusion (yeast GPS) (PSI 1-4); higher = more stable; sorted into four equal gates, so the index is relative within each strain
MEASUREMENT SETUP: san1∆
# thresholds on protein stability index define classes: LOW = under 2, MID = from 2 up to 3, HIGH = 3 and over

Take a look at these entries with their results.
# BIOPOLYMER SEQUENCE, CLASSIFICATION
measured = [
    ("FVEEQNVYVLPKNLLKK [PRP8]", "MID"),
    ("KHYLEDKLKVYKQAMNE [SNF5]", "HIGH"),
    ("LKSHYYQTCKNSEYLKR [SMC2]", "LOW"),
    ("LKYLDDLKAQFQELDSK [RPN9]", "HIGH"),
    ("ITVVPVVAAAEDDDNEQ [QCR6]", "LOW"),
]

Could you tell me which band ALILADSEIEISSEKLL [RPP1A] belongs to?
LOW

Which bin, given its protein stability index, does SPVQIAFNRFMAESLVD [SSN8] occupy?
LOW

Hi there! Could you help me figure out the category for TLESLENLVVADLESFA [COR1] please?
MID

# bin lookup: classify AWRTLVGVSHTNEEVRN [CYT1] by its protein stability index
LOW

* * *

ASSAY PROCEDURE: protein stability index of a GFP-peptide fusion (yeast GPS) (PSI 1-4); higher = more stable; sorted into four equal gates, so the index is relative within each strain
MEASUREMENT SETUP: san1∆
MEASUREMENT KIND: protein stability index
Enter the number alone.

# BIOPOLYMER SEQUENCE, RESULT
rows = [
    ("TETEVEREQPQENKNID [SRB4]", 3.07),
    ("DSLIQLANRSKENFILD [YJL039C/NUP192]", 3.23),
    ("QSRVPTSLTSIKWENAF [PRP8]", 3.44),
    ("TESVPEPKLFRMRIFAS [RPL20A]", 3.02),
]

State the recorded protein stability index for this entry: MKNKAETTTEEDSENPS [ITC1]
3.03

Entry GKEFGDVSVKMGNTKVH [RRP45] has what protein stability index?
2.25

* * *

ASSAY PROCEDURE: protein stability index of a GFP-peptide fusion (yeast GPS) (PSI 1-4); higher = more stable; sorted into four equal gates, so the index is relative within each strain
MEASUREMENT SETUP: doa10∆
MEASUREMENT KIND: protein stability index
# print the numeric value only

Look over these answered cases.
# BIOPOLYMER SEQUENCE, RESULT
records = [
    ("ITLRTSGELLQGIVRVY [MCD1]", 2.96),
    ("GGLQKGKLVVSQEMVPR [SIR3]", 3.03),
    ("SEDHSFRKVKLRVDEVQ [RPS1B]", 3.05),
    ("KMIDFATLSKLKKKYQI [SIR3]", 2.9),
    ("SLTEATKTNVDNNSKAE [YLR335W/NUP2]", 3.14),
]

For the sequence FVEEQNVYVLPKNLLKK [PRP8] , what protein stability index is on record?
2.54

Endpoint output: protein stability index of VLKVDKRFMNTSQNPQR [BRR2] . Value?
3

protein stability index lookup needed for ELPKKLLNLPPFQVSSF [SRB8] , thanks.
1.77

Given LRACAANVDQISFLEPI [YMR129W/POM152] , state its recorded protein stability index.
3.06

What value of measured protein stability index is listed for VKQLENVSSNIVKNAEQ [RPS20] ?
2.58

Quick one: protein stability index for FLMGIFNSVVNLSRYPK [MTR3] ?
2.6

Sample NGGEDTSVENEGPVANL [REC8] — what was its protein stability index?
3.37

* * *

ASSAY PROCEDURE: protein stability index of a GFP-peptide fusion (yeast GPS) (PSI 1-4); higher = more stable; sorted into four equal gates, so the index is relative within each strain
MEASUREMENT SETUP: san1∆
MEASUREMENT KIND: protein stability index
Give your answer as a number; write no unit.

Known results for sequences:
# BIOPOLYMER SEQUENCE, protein stability index
records = [
    ("SVAPTKQREIVKAFLSI [NUT1]", 2.41),
    ("LKNKNFKCQEKDKGVYV [SIR2]", 3.38),
    ("LIIDGFKSYATRTVITD [SMC2]", 2.99),
]

For HKLRESLPLIVFLRNRL [RPS4A] , what is its reported protein stability index?
1.4

What does the record list as protein stability index for NTFQKTVEPVYQMHIKT [FAS1] ?
1.58

I have this sequence here, PRPSYSSRPNVNTTRRF [YMR129W/POM152] , and I need its recorded protein stability index.
2.92

Need protein stability index of GSEILGDLKLQVLLDEE [RPO21] , thanks.
3.04

Entry ENYDDTELRQLFQENDD [DSN1] : reported protein stability index = ?
2.6

Would you mind telling me what protein stability index value was observed for KLVEIIWNDVVYGEGTS [YJL039C/NUP192] ?
3.39

* * *

ASSAY PROCEDURE: protein stability index of a GFP-peptide fusion (yeast GPS) (PSI 1-4); higher = more stable; sorted into four equal gates, so the index is relative within each strain
MEASUREMENT SETUP: ubr1∆
Please enter class 1 where protein stability index is greater than or equal to 3, and class 0 where it is lower.

Sample answers from the record:
# BIOPOLYMER SEQUENCE, CLASSIFICATION
data = [
    ("NNPKIQTKDSVKEIVLP [IRR1]", "class 1"),
    ("GQRDLDRIAAQTLEEDE [RPS19A]", "class 1"),
    ("TAVVNNAAPANVTGGKA [SWI1]", "class 0"),
    ("EPELRVLSTEEILNIFK [RPO21]", "class 1"),
    ("QDGVLLVALSNEPAARL [FAS2]", "class 0"),
]

Please tell me: is the sequence PEDALVNDFSDITSDQL [SMC3] at or over 3 in terms of protein stability index?
class 1

Quick check: does VTLVNGKRRMNPGPSVQ [RPS30A] have protein stability index greater than or equal to 3?
class 0

Evaluate KPNLNYFKSILLNKNTG [SWI1] : protein stability index at minimum 3?
class 0

Check this sequence for protein stability index at or above 3: SVKSARTSTRGRGRGRG [SNF2]
class 1

Is the recorded value of protein stability index equal to or greater than 3 for this sequence? KTLCARAVANRTDATFI [RPT1]
class 0

Form field: protein stability index at least 3? Entry: SQVVWIRRLRVLRRLLA [RPL19A]
class 0

Test whether the sequence PDCKIKIAHGTTTLAFR [PRE2] records protein stability index of 3 or higher.
class 0

* * *

In this section we review reported protein stability index values for a set of sequences.
ASSAY PROCEDURE: protein stability index of a GFP-peptide fusion (yeast GPS) (PSI 1-4); higher = more stable; sorted into four equal gates, so the index is relative within each strain
MEASUREMENT SETUP: ubr1∆
// keep it numeric: no unit symbol after the value

Example sequences with recorded protein stability index:
# BIOPOLYMER SEQUENCE, MEASUREMENT KIND, RESULT
data = [
    ("QTLSSHLEALQPLFSTV [PGD1]", "protein stability index", 2.49),
    ("NRQVMHKMGVERSSKRL [SIR3]", "protein stability index", 3.34),
]

So what does the record say about protein stability index for SLLNLLNISPFTFGLTV [RPP0] ?
1.84

Could you tell me which protein stability index is on file for VSLIKKYKLISRIVEIF [YML103C/NUP188] ?
1.46

// lookup protein stability index for SFVFGQAAAKPSLEKSS [YLR335W/NUP2]
2.67

Requested field: protein stability index. Item: LLLLSLFKKITNVNPSK [YML103C/NUP188]
1.93

Which protein stability index value belongs to LPEKVNFRTMQQQQMQQ [SSN2] ?
2.38

Name the reported protein stability index value associated with the sequence VSTKTNEYRLAFYQVTP [RPL22A]
2.48

Can you share its protein stability index? I mean this sequence: ILPQQSKLKLKNLLRKN [ECM29]
2.25

# lookup: protein stability index of HYDNTTRNSLGNVIQFI [RPO21]
2.86

Please give the measured protein stability index for this sequence: RNEQVTIELKNGTTVWG [SMD1]
1.16
